- targetDesc: IRAK1 (human purified recombinant enzyme His-TEV-IRAK1 (194-712)) (Homo sapiens)
- Construct: His-TEV-IRAK1 (194-712); His (N); TEV cleavage site (N)
- Sequence (P51617 194-712): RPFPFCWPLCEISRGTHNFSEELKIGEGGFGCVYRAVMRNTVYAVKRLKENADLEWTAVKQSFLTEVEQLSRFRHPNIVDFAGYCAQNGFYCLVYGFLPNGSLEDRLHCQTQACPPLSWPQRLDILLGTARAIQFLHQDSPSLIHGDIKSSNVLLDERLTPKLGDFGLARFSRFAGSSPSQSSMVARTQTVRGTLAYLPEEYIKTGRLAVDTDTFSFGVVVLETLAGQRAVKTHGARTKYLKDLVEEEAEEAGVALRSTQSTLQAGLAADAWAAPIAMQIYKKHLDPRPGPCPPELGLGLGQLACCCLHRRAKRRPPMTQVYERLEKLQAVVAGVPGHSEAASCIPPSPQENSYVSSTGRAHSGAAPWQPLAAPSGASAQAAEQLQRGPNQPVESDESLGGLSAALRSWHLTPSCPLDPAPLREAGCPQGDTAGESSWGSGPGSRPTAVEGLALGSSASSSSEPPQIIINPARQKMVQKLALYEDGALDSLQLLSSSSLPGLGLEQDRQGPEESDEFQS
- assayProtocol: IRAK1 enzymatic assay (ADP-Glo luminescence)
- testConditions: human recombinant IRAK1, ATP 1 μM
The molecules listed here are annotated with their IC50.

Some solved entries appear below for comparison.
Give IC50 (IRAK1 (human purified recombinant enzyme His-TEV-IRAK1 (194-712)) (Homo sapiens)) of the following molecule: Cc1ccc(-n2nc(C(C)(C)C)cc2NC(=O)C(=O)c2ccc(-c3nn(C)c4ncnc(N)c34)cc2)cc1 [Example 20]
< 100 nM

Give IC50 (IRAK1 (human purified recombinant enzyme His-TEV-IRAK1 (194-712)) (Homo sapiens)) of the following molecule: Cc1ccc(-n2nc(C(C)(C)C)cc2NC(=O)Nc2ccc(-c3nn(C)c4ncnc(N)c34)cc2F)cc1 [Example 4]
< 100 nM

Give IC50 (IRAK1 (human purified recombinant enzyme His-TEV-IRAK1 (194-712)) (Homo sapiens)) of the following molecule: CC(C)c1ccc(-n2nc(C(C)(C)C)cc2NC(=O)Cc2ccc(-c3nn(C)c4ncnc(N)c34)cc2)cc1 [Example 15]
< 100 nM

Give IC50 (IRAK1 (human purified recombinant enzyme His-TEV-IRAK1 (194-712)) (Homo sapiens)) of the following molecule: Cc1ccc(-n2nc(C(C)(C)C)cc2NC(=O)N[C@H]2CC[C@@H](c3cn(C)c4ncnc(N)c43)CC2)cc1 [Example 27]
100 to 1000 nM

Give IC50 (IRAK1 (human purified recombinant enzyme His-TEV-IRAK1 (194-712)) (Homo sapiens)) of the following molecule: CC(C)c1ccc(-n2nc(C(C)(C)C)cc2NC(=O)Nc2ccc(-c3nn(C)c4ncnc(N)c34)cc2F)cc1 [Example 9]
< 100 nM

Continuing:
Give IC50 (IRAK1 (human purified recombinant enzyme His-TEV-IRAK1 (194-712)) (Homo sapiens)) of the following molecule: Cc1ccc(-n2nc(C(F)(F)F)cc2NC(=O)Nc2ccc(-c3nn(C)c4ncnc(N)c34)c(F)c2)cc1 [Example 13]
100 to 1000 nM

Give IC50 (IRAK1 (human purified recombinant enzyme His-TEV-IRAK1 (194-712)) (Homo sapiens)) of the following molecule: Cc1ccc(-n2nc(C(C)(C)C)cc2NC(=O)Nc2ccc(-c3nn(C)c4ccnc(N)c34)cc2F)cc1 [Example 26]
< 100 nM

---

The compounds listed here are annotated with their IC50.
- targetDesc: IRAK4 (human purified recombinant enzyme His-TEV-IRAK4 (1-460)) (Homo sapiens)
- Construct: His-TEV-IRAK4 (1-460); His (N); TEV cleavage site (N)
- Sequence (Q9NWZ3 whole entry): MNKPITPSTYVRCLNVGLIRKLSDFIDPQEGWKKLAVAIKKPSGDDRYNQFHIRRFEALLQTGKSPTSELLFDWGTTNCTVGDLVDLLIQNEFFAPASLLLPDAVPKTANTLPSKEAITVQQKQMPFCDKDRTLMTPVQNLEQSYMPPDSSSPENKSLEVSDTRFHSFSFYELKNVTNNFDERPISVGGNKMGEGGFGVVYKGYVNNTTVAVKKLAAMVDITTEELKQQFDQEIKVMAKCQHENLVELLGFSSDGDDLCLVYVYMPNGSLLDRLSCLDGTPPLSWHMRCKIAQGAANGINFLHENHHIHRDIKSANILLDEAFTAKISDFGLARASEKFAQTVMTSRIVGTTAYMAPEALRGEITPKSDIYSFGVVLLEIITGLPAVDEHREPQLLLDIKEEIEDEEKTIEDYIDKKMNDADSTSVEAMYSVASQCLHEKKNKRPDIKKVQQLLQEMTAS
- assayProtocol: IRAK4 enzymatic assay (ADP-Glo luminescence)
- testConditions: human recombinant IRAK4, ATP 2 μM, STK1-biotin peptide

Some solved entries appear below for comparison.
Any idea what its IC50 is? The compound is `CC(C)c1ccc(-n2nc(C(C)(C)C)cc2NC(=O)Cc2ccc(-c3nn(C)c4ncnc(N)c34)cc2F)cc1`
0.1 to 1 µM

Any idea what its IC50 is? The compound is `CC(C)c1ccc(-n2nc(C(C)(C)C)cc2NC(=O)Nc2ccc(-c3nn(C)c4ncnc(N)c34)c(F)c2)cc1`
0.1 to 1 µM

Continuing:
Any idea what its IC50 is? The compound is `Cc1ccc(-n2nc(C(F)(F)F)cc2NC(=O)Nc2ccc(-c3nn(C)c4ncnc(N)c34)c(F)c2)cc1`
> 5 µM

Any idea what its IC50 is? The compound is `Cc1ccc(-n2nc(C(C)(C)C)cc2NC(=O)Nc2ccc(-c3nn(C)c4ncnc(N)c34)c(F)c2)cc1`
< 0.1 µM

Any idea what its IC50 is? The compound is `CC(C)c1ccc(-n2nc(C(C)(C)C)cc2NC(=O)Cc2ccc(-c3nn(C)c4ncnc(N)c34)cc2)cc1`
1 to 5 µM

Any idea what its IC50 is? The compound is `Cc1ccc(-n2nc(C(C)(C)C)cc2NC(=O)Nc2ccc(-c3nn(C)c4ccnc(N)c34)cc2F)cc1`
0.1 to 1 µM

Any idea what its IC50 is? The compound is `Cc1ccc(-n2nc(C(C)(C)C)cc2NC(=O)Nc2ccc(-c3csc4ncnc(N)c34)cc2F)cc1`
< 0.1 µM

Any idea what its IC50 is? The compound is Cc1ccc(-n2nc(C(C)(C)C)cc2NC(=O)NC2CC=C(c3cn(C)c4ncnc(N)c34)CC2)cc1 (stereo not drawn)
< 0.1 µM

Any idea what its IC50 is? The compound is `Cc1ccc(-n2nc(C(C)(C)C)cc2NC(=O)Nc2ccc(-c3csc4ncnc(N)c34)c(F)c2Cl)cc1`
1 to 5 µM

Any idea what its IC50 is? The compound is `Cc1ccc(-n2nc(C(C)(C)C)cc2NC(=O)Nc2ccc(-c3nn(C)c4ncnc(N)c34)cc2Cl)cc1`
< 0.1 µM

Any idea what its IC50 is? The compound is `Cc1ccc(-n2nc(C(C)(C)CO)cc2NC(=O)Nc2ccc(-c3nn(C)c4ncnc(N)c34)cc2Cl)cc1`
1 to 5 µM

Any idea what its IC50 is? The compound is `CC(C)c1ccc(-n2nc(C(C)(C)C)cc2NC(=O)Nc2ccc(-c3nn(C)c4ncnc(N)c34)cc2)cc1`
0.1 to 1 µM

Any idea what its IC50 is? The compound is `Cc1ccc(-n2nc(C(C)(C)C#N)cc2NC(=O)Nc2ccc(-c3csc4ncnc(N)c34)cc2Cl)cc1`
1 to 5 µM

Any idea what its IC50 is? The compound is `Cc1ccc(-n2nc(C(C)(C)C)cc2NC(=O)N[C@H]2CC[C@@H](c3cn(C)c4ncnc(N)c43)CC2)cc1`
1 to 5 µM

Any idea what its IC50 is? The compound is `Cc1ccc(-n2nc(C(C)(C)C)cc2NC(=O)C(=O)c2ccc(-c3nn(C)c4ncnc(N)c34)cc2)cc1`
< 0.1 µM

---

- System: TLR7 induced IL-6 secretion in human mononuclear cells (PBMC's)
- assayProtocol: TLR7 induced IL-6 in human PBMC's
- Assay type: cell-based
- testConditions: TLR7 ligand 2 uM overnight, IL-6 AlphaLISA
pIC50: −log10 of the molar value.
parameterMeasured: pIC50

Some solved entries appear below for comparison.
Any idea what its pIC50 is? The molecule is `Cc1ccc(-n2nc(C(C)(C)C)cc2NC(=O)Nc2ccc(-c3nn(C)c4ncnc(N)c34)cc2F)cc1`
> 7.00

Any idea what its pIC50 is? The molecule is `Cc1ccc(-n2nc(C(C)(C)C)cc2NC(=O)Nc2ccc(-c3nn(C)c4ncnc(N)c34)c(F)c2)cc1`
> 7.00

Continuing:
Any idea what its pIC50 is? The molecule is `Cc1ccc(-n2nc(C(C)(C)C)cc2NC(=O)Nc2ccc(-c3nn(C)c4ncnc(N)c34)cc2Cl)cc1`
> 7.00
